Recorded measurements of switch fluorescence ratio, one per entry
- Test system: ATP;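 further: ATP exposure 15 min at 22 °C before imaging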
- method_summary: switch fluorescence ratio, 500 uM ATP over buffer (Cy3 cluster intensity, sum of 5 cycles each) (fold (ratio)); higher = stronger signal-on switching upon ATP binding; sequences stand for … in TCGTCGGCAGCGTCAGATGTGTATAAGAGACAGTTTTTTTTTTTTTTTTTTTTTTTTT…TC
- assay_context: aptamer strand: ATP DNA aptamer (quencher-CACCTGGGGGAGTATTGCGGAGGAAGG + anchor), 100 nM annealed; ATP concentration: 500 uM
I'd appreciate a reply containing only the number, no unit.

Recorded results for 3 sequences are shown here.
In [3]: df
Out[3]:
     seq_text         measured_parameter  test_value
0  ACTGGAGGAG  switch fluorescence ratio        1.01
1  GAATGGCCAG  switch fluorescence ratio       0.992
2  AGATGTTGAA  switch fluorescence ratio       0.979

Q: Value lookup for switch fluorescence ratio; key = TTCGCGTAGA
Result: 1.01

Q: Next record, please: ACGTATTTTC
Result: 1.17
